Target: T1, hIL-18BP-hFc (human, UniProt O95998 31-194, limits assumed)
T1 sequence (looked up): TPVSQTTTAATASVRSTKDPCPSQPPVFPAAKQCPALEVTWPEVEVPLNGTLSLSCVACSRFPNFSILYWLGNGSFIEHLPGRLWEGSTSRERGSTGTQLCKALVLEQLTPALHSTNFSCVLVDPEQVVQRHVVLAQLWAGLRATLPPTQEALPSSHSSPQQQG
Test: cell-based or functional assay
endpoint-name: EC50 (nM) in the Presence of 1 µg/mL hIL-18BP-hFc, hIL-18 reporter assay
Entry rule: numbers only, all in nM.

Enquiry: May I ask what EC50 (nM) in the Presence of 1 µg/mL hIL-18BP-hFc, hIL-18 reporter assay has been recorded for IL-18 variant polypeptide M17 (ligand) YFPKLRSKLSVIRNLNDQVLFIDQGNRPLFEDMTDSDCRDNAPRTIFIISMYKLSTARGMAVTISVKCEKISTLSCENKIISFKEMNPPDGIKDTKSDIIFFQRSVPGHDNKMQFESSSYEGYFLACEKERDLFKLILKKEDELGDRSIMFTVQNED ?
Return: 0.32

Enquiry: May I ask what EC50 (nM) in the Presence of 1 µg/mL hIL-18BP-hFc, hIL-18 reporter assay has been recorded for IL-18 variant polypeptide M16 (ligand) YFPKLRSKLSVIRNLNDQVLFIDQGNRPLFEDMTDSDCRDNAPRTIFIISMYKSSRNRGMAVTISVKCEKISTLSCENKIISFKEMNPPDGIKDTKSDIIFFQSSVPGHDNKMQFESSSYEGYFLACEKERDLFKLILKKEDELGDRSIMFTVQNED ?
Return: 0.34

Enquiry: May I ask what EC50 (nM) in the Presence of 1 µg/mL hIL-18BP-hFc, hIL-18 reporter assay has been recorded for IL-18 variant polypeptide M2 (ligand) YFSKLKSKLSVIRNLNDQVLFIDQGNRPLFEDMTDSDCRDNAPRTIFIISMYKWSPDRGMAVTISVKCEKISTLSCENKIISFKEMNPPDGIKDTKSDIIFFQTSVPGHDNKMQFESSSYEGYFLACEKERDLFKLILKKEDELGDRSIMFTVQNED ?
Return: 0.19
